// data source = the supplement of paper PMC6555819

System: LXRb:RXRa (NR concentration 270 nM, RXRa partner concentration 90 nM)
procedure details: PBM binding z-score (relative to random genomic background probes); higher = stronger binding; sequences stand for … in GC…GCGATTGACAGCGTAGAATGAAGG
reported metric: PBM binding z-score

monomer sequence	reported metric	reading
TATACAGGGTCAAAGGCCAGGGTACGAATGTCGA	PBM binding z-score	4.8
AGAATGAGGTTATTAAGATCAGGAAATTGCGGTC	PBM binding z-score	1.3
AGAACGAGGGCAATGCGTTGATAGCACGGGTGGC	PBM binding z-score	-0.19
ATATGTACGTTAAGGGTCATTCAGGTTGGTTCGC	PBM binding z-score	4.2
TCTCGGAGCACACGAAAGGTCAGAGCTCGACATC	PBM binding z-score	2.84
CCTGCTAGGTCATGGCCAGCTAATCTACAGTATG	PBM binding z-score	1.76
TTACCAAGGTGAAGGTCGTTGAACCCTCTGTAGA	PBM binding z-score	2.99
CGTCAAAGTTCAACTAAGCTAACGTAAAGCACGC	PBM binding z-score	4.26
GGAACGAGGACATTCGAGTTGATAGCATGGCGAT	PBM binding z-score	-0.72
CCTGCTAGGTCGATGGTCAGCTAAAGCAGCTCGC	PBM binding z-score	-0.279
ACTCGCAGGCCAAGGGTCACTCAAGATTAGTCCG	PBM binding z-score	2.88
CCGACTGGGGCATAAGGTTACCATCAGCCAGCCC	PBM binding z-score	0.516
ATCTCTAGGTAAAGTTCAGTGAGAGATCGATAGA	PBM binding z-score	0.981
ATCGAAAGGTCGAGGTGCGTATAGAGAAAGGGAA	PBM binding z-score	2.47
CTACCAAGGTGAACAAAGTCGTTGATTACTATTC	PBM binding z-score	0.749
ATATGTAGGTTATCGGCTCATTCAGTTTGCGCAT	PBM binding z-score	0.755
CCTCGGAGTACAACAGGAGGTCAGAGCTGCCAGA	PBM binding z-score	1.35
GCTTGTAGATCAAGGTTCAGAAAGACTAAGCTAA	PBM binding z-score	0.103
GCGACTGGGACATCAGCAGGTTACCATAACTTAA	PBM binding z-score	-0.188
AGAAGGAGGTTACCAAAGATCAGGGAAACGCTTG	PBM binding z-score	2.9
AATACAGGGTCATCGTAGGCCATAGTACGCACAG	PBM binding z-score	4.97
CCAGACAGGTCAAAGGTAACTCAGTCTGGTACGC	PBM binding z-score	4.17
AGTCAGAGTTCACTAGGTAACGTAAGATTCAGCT	PBM binding z-score	2.64
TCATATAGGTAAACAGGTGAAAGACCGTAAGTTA	PBM binding z-score	0.571
CCTTACGGATCAAGGTTATAGCACGGGTGGTACG	PBM binding z-score	0.5
TCTCGGAGGACACGAAAGGTCACAGCTCGACATC	PBM binding z-score	4.7

====

Test system: RARa homodimer (NR concentration 270 nM)
procedure details: PBM binding z-score (relative to random genomic background probes); higher = stronger binding; sequences stand for … in GC…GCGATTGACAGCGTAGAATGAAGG
Below, each entry is listed with its recorded PBM binding z-score.

monomer sequence	PBM binding z-score
CTCGAAAGGTCGTGCTCAGGCGAGTATACCAAAC	-0.0786
CCGACTGGGGCATAAGGTTACTATAAGCCAGCCC	-0.358
TCTTTTAGATCAATAGAGGTTAAGAAAGTGCGCT	-0.186
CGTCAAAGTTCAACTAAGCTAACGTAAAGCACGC	2.34
TCTCGGAGGACCCGAAAGGTCAGAGCTCGACATC	0.185
TCTAGTTGGTCACAGAGGTCACACACGACGGGTA	4.36
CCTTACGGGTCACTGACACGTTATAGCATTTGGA	0.948
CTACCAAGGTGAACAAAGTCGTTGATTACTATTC	0.222
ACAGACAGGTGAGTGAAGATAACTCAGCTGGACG	0.147
ACATGTAGGTTACATCCGGGTCATTCAGGCTATG	0.622
CCGTACGGGTCACTCCAGGTTATAGCATCGGAGT	-0.104
CGTCCAAGGTCAATGATAGGTCAGTGAAAGCATT	1.7
CCAGACAGGTGAGAAGATAACTCAGCCTCGATTA	0.792
CAGCCTAGGTCACGGCCAGTATAGGAGGAACGTT	0.239
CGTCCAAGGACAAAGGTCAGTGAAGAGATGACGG	1.02
TCTATTAGTTGAAGGGCAACCGTCGAGTCCGTTT	1.09
TCTTATAGGTAAAGGTGAAAGTCGAACGATATGA	1.18
TGAATGAGGTTATAAAATCAGGGAACGTTGCAAA	-0.0179
CCTGCTAGGTTATGGTCAGCTAATCTACAGTATG	0.0671
ATCTTTAGGTAAAAGTTCAGTGAATCCCGAGGAT	0.328
ATATGTCGGTTATCGGGTCATTCAGTTTGCGCAT	0.924
AACACAGGGTCATCGTAGGCCAGAGTACGCACAG	0.823
ATCTCTAGGTAAGACTCAGTGCAGTGAAGAACGC	0.328
TCTAGTTGGTCACGGATGTCACACACGACGGGTA	0.648
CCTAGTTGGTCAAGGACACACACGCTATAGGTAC	1.89
ACTATTAGTTGAGACGAGGGTAACCGATAGGTTG	0.125
CAGCCTATGTCAGGGCCAGTATAGGAGGAACGTT	-0.292
ACTAGCAGGCCAAGTTTGGGTCAGTCAAACAAAG	-0.408
GGAACGAGGGCAAAGTTGATAGCCTCTGTCGACG	-0.637
CAAACTAGGTCAAGGTCAAAGGCGGTTTGTGCCA	1.25
TCATATAGGTAAAGGTGACAGTCGAACGATATGA	0.76
AGTCAAAGTTCGGGACGAGGTAACGTAAAGCACG	-0.0634
CCTACTGGGCCAAGGTCATGGATCAGTCAAAGCA	0.247
CTACCAAGGTGAACAAGGTCGTTAATTACTATTC	0.262
CATACAGGGTCAGCTAGACCAGAGTAGGGACGGC	0.685
ATCTCTAGGTAAGACTCACTTCAGTGAAGAACGC	0.334
GTACCAAGGTGAATAGGTCGTCGATGAGTAGGCG	0.0363
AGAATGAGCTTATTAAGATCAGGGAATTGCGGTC	-0.11
GCATATCGGTAATACAAGGTGAAAGTCCGATTGT	0.00157
AGATCGAGGGCAATGAGTTGATAGCACGGGTGGC	0.369
CCGACTGGGGCAAAGGTTCCCATACTCAGTACGA	0.117
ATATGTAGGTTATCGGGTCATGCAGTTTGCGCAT	1.09
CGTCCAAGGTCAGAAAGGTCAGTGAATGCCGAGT	3.03
TCATTTAGGTAAACAGGTGAAAGTCCGTAAGTTA	1.74
CGTCAAAGTTCAACTCAGGTAACGTAAAGCACGC	1.92
CGCACGAGGGCATGAGTTGATAGCAAATGCCGAT	-0.714
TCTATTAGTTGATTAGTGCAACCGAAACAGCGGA	1.06
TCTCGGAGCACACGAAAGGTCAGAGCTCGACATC	0.999
ACTATTAGTTGAAACGAGGGCAACCGATAGGTTG	0.873
CCGACTGGGGCAGAAAGGTTACAATACCATCCGG	0.24
CATTCAGGGTCAGCTAGGCCAGAGTAGGGACGGC	0.262

====

Here the recorded PBM binding z-score is given for each entry.
Test system: RARg:RXRa (NR concentration 270 nM, RXRa partner concentration 90 nM)
procedure details: PBM binding z-score (relative to random genomic background probes); higher = stronger binding; sequences stand for … in GC…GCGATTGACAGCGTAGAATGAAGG
reported metric: PBM binding z-score

monomer sequence	assay system	reported metric	reading
CAGCCTAGGTCAGGGCCGGTATAGGAGGAACGTT	RARg:RXRa (NR concentration 270 nM, RXRa partner concentration 90 nM)	PBM binding z-score	3.04
CCTTACGGGTCACGAGGTTATTGCACGACGAGCG	RARg:RXRa (NR concentration 270 nM, RXRa partner concentration 90 nM)	PBM binding z-score	6.12
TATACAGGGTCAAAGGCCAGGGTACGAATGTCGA	RARg:RXRa (NR concentration 270 nM, RXRa partner concentration 90 nM)	PBM binding z-score	5.77
ACTATTAGTTGAGACGATGGCAACCGATAGGTTG	RARg:RXRa (NR concentration 270 nM, RXRa partner concentration 90 nM)	PBM binding z-score	0.459
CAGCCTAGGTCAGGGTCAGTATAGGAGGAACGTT	RARg:RXRa (NR concentration 270 nM, RXRa partner concentration 90 nM)	PBM binding z-score	4.27
GCGAGTTGGTCAGTAAAAGGTCACACACCGGTCG	RARg:RXRa (NR concentration 270 nM, RXRa partner concentration 90 nM)	PBM binding z-score	5.52
CAAACTAGGTCAAGTTCAAAGTCGGTTTGTGCCA	RARg:RXRa (NR concentration 270 nM, RXRa partner concentration 90 nM)	PBM binding z-score	5.17
CAAACTAGGTCAAAGGTCCAAGTCGAGCCAACCA	RARg:RXRa (NR concentration 270 nM, RXRa partner concentration 90 nM)	PBM binding z-score	4.98
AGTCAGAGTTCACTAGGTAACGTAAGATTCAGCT	RARg:RXRa (NR concentration 270 nM, RXRa partner concentration 90 nM)	PBM binding z-score	4.11
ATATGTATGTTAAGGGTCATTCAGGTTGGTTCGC	RARg:RXRa (NR concentration 270 nM, RXRa partner concentration 90 nM)	PBM binding z-score	3.82
GCGACTGAGGCATCAGCAGGTTACCATAACTTAA	RARg:RXRa (NR concentration 270 nM, RXRa partner concentration 90 nM)	PBM binding z-score	-0.216
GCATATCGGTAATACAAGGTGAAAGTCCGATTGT	RARg:RXRa (NR concentration 270 nM, RXRa partner concentration 90 nM)	PBM binding z-score	0.308
